Reference for the values: patent US11414387B2

Target: hSTING-WT (Homo sapiens (Human), UniProt Q86WV6, H232R)
Sequence (Q86WV6 140-379 H232R): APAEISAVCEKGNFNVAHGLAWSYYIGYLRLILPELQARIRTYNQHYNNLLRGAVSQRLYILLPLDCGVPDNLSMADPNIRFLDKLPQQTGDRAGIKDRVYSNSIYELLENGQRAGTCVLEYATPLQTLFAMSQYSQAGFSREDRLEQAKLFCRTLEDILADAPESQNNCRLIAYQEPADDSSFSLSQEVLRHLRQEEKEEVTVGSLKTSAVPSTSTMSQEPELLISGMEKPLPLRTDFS
Experiment: Radiometric filtration binding competition assay, hSTING-WT
Exercise: state measured IC50 for each of the compounds provided.

> print(dat)
                            substancesmiles  experimentalresult
1  O=C(O)Cn1c2cc(-c3ccncc3)ccc2c(=O)c2ccc(Cl)c(Cl)c21       100 to 300 µM
2  Cn1ccnc1-c1ccc2c(=O)c3ccc(Cl)c(Cl)c3n(CC(=O)O)c2c1            > 300 µM
3  COc1c(Cl)ccc2c(=O)c3cc(O)c(C(C)C)cc3n(CC(=O)O)c12            > 300 µM

stdin: So what's the measured IC50 for this one? O=C(O)Cn1c2cc(-c3ccc(O)cc3)ccc2c(=O)c2ccc(Cl)c(Cl)c21
stdout: 20 to 100 µM
